target-under-test: 5-lipoxygenase (Rattus norvegicus)
Sequence (P12527 1-673): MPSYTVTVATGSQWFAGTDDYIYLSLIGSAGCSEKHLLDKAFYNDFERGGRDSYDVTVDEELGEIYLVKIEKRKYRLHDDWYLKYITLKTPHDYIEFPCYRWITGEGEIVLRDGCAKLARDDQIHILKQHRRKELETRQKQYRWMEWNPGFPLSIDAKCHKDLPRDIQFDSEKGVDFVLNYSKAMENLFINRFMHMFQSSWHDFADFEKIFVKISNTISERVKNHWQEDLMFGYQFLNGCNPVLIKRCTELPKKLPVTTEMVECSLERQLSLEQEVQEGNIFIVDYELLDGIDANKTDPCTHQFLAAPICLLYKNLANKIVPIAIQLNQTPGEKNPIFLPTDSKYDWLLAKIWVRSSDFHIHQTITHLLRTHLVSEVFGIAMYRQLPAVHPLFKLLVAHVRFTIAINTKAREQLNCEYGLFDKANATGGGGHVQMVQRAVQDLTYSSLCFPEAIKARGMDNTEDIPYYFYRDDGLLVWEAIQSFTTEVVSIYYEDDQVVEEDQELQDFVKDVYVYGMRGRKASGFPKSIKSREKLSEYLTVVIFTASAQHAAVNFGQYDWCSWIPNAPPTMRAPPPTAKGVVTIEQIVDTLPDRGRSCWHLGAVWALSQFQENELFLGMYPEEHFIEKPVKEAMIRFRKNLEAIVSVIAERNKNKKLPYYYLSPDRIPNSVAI
protocol-description: ARBL whole cell 5-lipoxygenase assay: inhibition of LTB4 formation in A23187-stimulated RBL-1 cells
assay-context: RBL-1 whole cells, RIA of LTB4
pIC50: −log10 of the molar value.
measure-name: pIC50

In [3]: df
Out[3]:
                                   compound  measure_name  result_number
0  CNC(=O)N(O)C(C)c1cccc(Nc2ccccc2-c2n[nH]c(=O)o2)c1Cl (stereo not drawn)         pIC50           5.73
1  CCOC(=O)N(O)C(C)c1cccc(Nc2ccccc2-c2n[nH]c(=S)o2)c1Cl (stereo not drawn)         pIC50           5.94
2  CC(=O)N(O)C(C)c1c(C)ccc(Nc2ccccc2-c2n[nH]c(=S)o2)c1C (stereo not drawn)         pIC50           5.23
3  CC(=O)N(O)C(C)c1cccc(Nc2ccccc2-c2n[nH]c(=O)o2)c1Cl (stereo not drawn)         pIC50           6.17
4  CC(=O)N(O)C(C)c1cccc(Nc2ccccc2-c2n[nH]c(=S)o2)c1Cl (stereo not drawn)         pIC50           5.02
5  CCOC(=O)N(O)C(C)c1cccc(Nc2ccccc2-c2n[nH]c(=O)o2)c1Cl (stereo not drawn)         pIC50           5.96
